# System: 16HBE14o-
# PROTOCOL_DESCRIPTION: Cytotoxicity against human 16HBE cells after 48 hrs by CCK-8 assay
# Assay type: cell-based
pIC50: −log10 of the molar value.
QUANTITY_KIND: pIC50

Could you share which pIC50 value was measured for CCOc1nc2cccc(C(=O)OC(C)OC(=O)OC3CCCCC3)c2n1Cc1ccc(-c2ccccc2-c2nn[nH]n2)cc1 (stereo unspecified) [CANDESARTAN CILEXETIL] ?
< 4.00

---

# Test system: Huh-7
# PROTOCOL_DESCRIPTION: Antiproliferative activity against human HuH7 cells measured after 48 hrs by CCK8 assay
# Assay type: functional, cell-based
# EXPERIMENTAL_CONTEXT: Huh-7, 48 h
pIC50: −log10 of the molar value.
Exercise: for every item that follows, state its recorded pIC50.

MOLECULE: NS(=O)(=O)OC[C@@H]1C[C@@H](n2ccc3c(N[C@H]4CCc5ccccc54)ncnc32)C[C@@H]1O
pIC50: < 5.00

Could you share which pIC50 value was measured for CCOc1nc2cccc(C(=O)OC(C)OC(=O)OC3CCCCC3)c2n1Cc1ccc(-c2ccccc2-c2nn[nH]n2)cc1 (configuration not stated) ?
< 4.00
